Format: physicochemical, Sphingobium japonicum UT26
Details: ellipticity at 222 nm, 20 to 80° C., 1° C./min, 50 mM potassium phosphate buffer (pH 7.5)

# molecule, Tm (°C)
rows = [
    ("L177K: LinB variant in the position 177 (protein, UniProt D4Z2G1 2-296, looked up, variant L177K) Haloalkane dehalogenase: SLGAKPFGEKKFIEIKGRRMAYIDEGTGDPILFQHGNPTSSYLWRNIMPHCAGLGRLIACDLIGMGDSDKLDPSGPERYAYAEHRDYLDALWEALDLGDRVVLVVHDWGSALGFDWARRHRERVQGIAYMEAIAMPIEWADFPEQDRDLFQAFRSQAGEELVLQDNVFVEQVLPGKILRPLSEAEMAAYREPFLAAGEARRPTLSWPRQIPIAGTPADVVAIARDYAGWLSESPIPKLFINAEPGALTTGRMRDFCRTWPNQTEITVAGAHFIQEDSPDEIGAAIAAFVRRLRPA", 51.01),
]
